system tested: Sigma non-opioid intracellular receptor 1 (Cavia porcellus, UniProt Q60492)
Sequence (Q60492 whole entry): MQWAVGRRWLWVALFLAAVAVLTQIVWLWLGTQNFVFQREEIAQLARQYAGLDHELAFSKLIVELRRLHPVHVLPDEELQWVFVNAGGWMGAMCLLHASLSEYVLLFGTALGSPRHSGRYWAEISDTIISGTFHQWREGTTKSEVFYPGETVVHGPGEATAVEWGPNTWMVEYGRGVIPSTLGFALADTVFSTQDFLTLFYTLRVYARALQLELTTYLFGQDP
assay summary: Displacement of [3H]-(+)-pentazocine from guinea pig brain membrane sigma 1 receptor assessed as inhibition constant measured after 120 mins by scintillation counting method
measurement label: Ki (µM)

Worked cases, Ki given:
C[C@@H]1CC[C@@H]2[C@@H](C1)O[C@@H]1CN(CCCCc3ccccc3)C[C@@]2(C)O1	0.805
C[C@@H]1CC[C@@H]2[C@@H](C1)OCO[C@]2(C)CNCCCCc1ccccc1	0.0097

a = CN1CCN(CCc2ccc(Cl)c(Cl)c2)CC1
b = C[C@@H]1CC[C@@H]2[C@@H](C1)OCO[C@@]2(C)CNCCCCc1ccccc1
c = C[C@@H]1CC[C@@H]([C@@](C)(O)CNCCCCc2ccccc2)[C@H](O)C1
d = C[C@@H]1CC[C@@H]2[C@@H](C1)OC(C)(C)O[C@@]2(C)CN1CCC(Cc2ccccc2)CC1
e = COc1ccc(CC2CCN(C[C@](C)(O)[C@@H]3CC[C@@H](C)C[C@H]3O)CC2)cc1
Query block: Put these in order: smallest Ki first, largest last. Sort the labels as requested; that list is your answer.
Result block: e, c, d, b, a
(e: 0.0029 µM, c: 0.0082 µM, d: 0.016 µM, b: 0.069 µM, a: 0.449 µM)
